Give measured pKi for each item. Keep answers brief.
# target system: Muscarinic acetylcholine receptor M5 (Homo sapiens)
# Sequence (P08912 whole entry): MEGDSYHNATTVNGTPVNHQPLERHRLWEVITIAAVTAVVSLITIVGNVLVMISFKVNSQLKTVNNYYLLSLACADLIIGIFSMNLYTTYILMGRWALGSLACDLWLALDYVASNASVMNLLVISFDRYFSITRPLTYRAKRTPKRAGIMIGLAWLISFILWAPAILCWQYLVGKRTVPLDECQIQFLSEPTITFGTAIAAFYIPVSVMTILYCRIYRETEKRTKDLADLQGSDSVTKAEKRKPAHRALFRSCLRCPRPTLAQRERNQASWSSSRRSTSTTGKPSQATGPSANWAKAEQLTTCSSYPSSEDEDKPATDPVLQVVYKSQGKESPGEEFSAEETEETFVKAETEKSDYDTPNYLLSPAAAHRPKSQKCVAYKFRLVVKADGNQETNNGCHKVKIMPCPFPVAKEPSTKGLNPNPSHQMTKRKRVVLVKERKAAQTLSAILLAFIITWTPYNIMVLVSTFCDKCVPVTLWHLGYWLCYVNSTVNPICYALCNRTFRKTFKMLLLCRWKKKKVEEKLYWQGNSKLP
Numbers only, as −log10 of the molar value.

NC(=O)C(c1ccccc1)(c1ccccc1)[C@@H]1CCN(CCc2ccc3c(c2)CCO3)C1 : 8.64

// field: pKi; key: "NC1=COC=C(CN2CCC(NC(=O)[C@](O)(c3ccccc3)[C@@H]3CCC(F)(F)C3)CC2)N1" ; value = 8.11

---

# target system: Muscarinic acetylcholine receptor M2 (Homo sapiens)
# Sequence (P08172 whole entry): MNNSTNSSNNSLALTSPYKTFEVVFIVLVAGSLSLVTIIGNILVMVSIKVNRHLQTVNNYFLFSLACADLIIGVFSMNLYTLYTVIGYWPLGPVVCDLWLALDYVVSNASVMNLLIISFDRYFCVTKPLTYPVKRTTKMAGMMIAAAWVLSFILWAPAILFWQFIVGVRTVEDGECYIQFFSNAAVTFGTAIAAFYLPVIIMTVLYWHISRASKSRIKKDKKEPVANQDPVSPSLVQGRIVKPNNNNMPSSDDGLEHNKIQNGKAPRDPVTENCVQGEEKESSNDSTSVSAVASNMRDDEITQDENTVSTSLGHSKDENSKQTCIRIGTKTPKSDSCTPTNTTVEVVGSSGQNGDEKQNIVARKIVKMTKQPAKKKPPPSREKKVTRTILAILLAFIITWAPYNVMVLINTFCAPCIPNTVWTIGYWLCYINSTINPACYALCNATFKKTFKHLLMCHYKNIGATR
result type: Ki (µM)
Give bare numbers, in µM.

// field: Ki; key: "NC1=COC=C(CN2CCC(NC(=O)[C@](O)(c3ccccc3)[C@@H]3CCC(F)(F)C3)CC2)N1" ; value = 0.54
